Where do these numbers come from? They come from patent US20250257142A1.

- subject of test: T1, extracellular domain of canine IL-31RA fused to murine IgG2A Fc (canine)
- T1 construct: also called Canine IL-31RA-murine IgG2A Fc; Canine IL-31RA-mFc
- T1 chain: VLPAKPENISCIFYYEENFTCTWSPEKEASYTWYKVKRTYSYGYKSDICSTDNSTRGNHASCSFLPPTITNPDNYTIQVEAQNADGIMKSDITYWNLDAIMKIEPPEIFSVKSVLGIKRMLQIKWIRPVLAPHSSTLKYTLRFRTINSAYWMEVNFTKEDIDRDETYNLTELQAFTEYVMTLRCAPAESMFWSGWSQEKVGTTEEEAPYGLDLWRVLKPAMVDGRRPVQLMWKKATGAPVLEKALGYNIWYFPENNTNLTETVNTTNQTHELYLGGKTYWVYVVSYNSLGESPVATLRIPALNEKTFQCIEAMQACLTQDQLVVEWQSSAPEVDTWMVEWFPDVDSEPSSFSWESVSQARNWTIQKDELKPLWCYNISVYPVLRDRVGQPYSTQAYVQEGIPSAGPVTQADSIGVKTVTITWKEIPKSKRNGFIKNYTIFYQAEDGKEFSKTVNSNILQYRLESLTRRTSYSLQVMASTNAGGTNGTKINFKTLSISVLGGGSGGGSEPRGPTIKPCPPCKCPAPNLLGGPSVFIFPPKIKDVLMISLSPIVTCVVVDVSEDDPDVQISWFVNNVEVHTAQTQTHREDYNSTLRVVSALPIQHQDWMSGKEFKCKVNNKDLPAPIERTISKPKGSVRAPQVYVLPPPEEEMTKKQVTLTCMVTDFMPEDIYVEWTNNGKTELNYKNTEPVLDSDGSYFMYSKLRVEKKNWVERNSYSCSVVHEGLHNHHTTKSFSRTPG
- experiment summary: SPR Biacore T200, antibody captured on anti-dog H+L chip, canine IL-31RA-mFc as analyte; relative affinity scale: *** 3 pM-100 pM, ** 101 pM-1 nM, * 1.1 nM-20 nM (avidity)
measured attribute: relative affinity (apparent KD by SPR)

1. 109-49 heavy chain W53F + M118I variant with light chain S95A variant (antibody, V domains shown, Canine IgGB/kappa; signal peptides left out; also called W53F-M118I / S95A) VH: EVQLVESGGDLVKPGGSLRLSCVASGFTFDDYGMSWVRQAPGKGLQWVSGINFAGGTIGYADAVKGRFTISRDNARNTVYLQMNSLRAEDTAVYYCARESPLRLGDLGGDYFYYYYYIDVWGQGTLVTVSS VL: EVVMIQTPLSLSVSPGEPASISCRASQSVSSRYLVWYLQKPGQSPQLLIYGTSSRATGVSDRFSGSGSGTDFTLRISRVEAEDVGVYYCQQYDNAPRTFGQGTKVEIKR = 1.1 to 20 nM
2. 109-49_IA (109-49 containing the M118I and S95A variants) (antibody, V domains shown, Canine IgGB/kappa; signal peptides left out; also called M118I / S95A) VH: EVQLVESGGDLVKPGGSLRLSCVASGFTFDDYGMSWVRQAPGKGLQWVSGINWAGGTIGYADAVKGRFTISRDNARNTVYLQMNSLRAEDTAVYYCARESPLRLGDLGGDYFYYYYYIDVWGQGTLVTVSS VL: EVVMIQTPLSLSVSPGEPASISCRASQSVSSRYLVWYLQKPGQSPQLLIYGTSSRATGVSDRFSGSGSGTDFTLRISRVEAEDVGVYYCQQYDNAPRTFGQGTKVEIKR = 0.003 to 0.1 nM

Now let's try a different one.
For 109-49 wild-type heavy chain with light chain S95A variant (antibody, V domains shown, Canine IgGB/kappa; signal peptides left out; also called Wild-type / S95A) VH: EVQLVESGGDLVKPGGSLRLSCVASGFTFDDYGMSWVRQAPGKGLQWVSGINWAGGTIGYADAVKGRFTISRDNARNTVYLQMNSLRAEDTAVYYCARESPLRLGDLGGDYFYYYYYMDVWGQGTLVTVSS VL: EVVMIQTPLSLSVSPGEPASISCRASQSVSSRYLVWYLQKPGQSPQLLIYGTSSRATGVSDRFSGSGSGTDFTLRISRVEAEDVGVYYCQQYDNAPRTFGQGTKVEIKR the binder record lists relative affinity (apparent KD by SPR) as 0.003 to 0.1 nM
